system: human SMAD7 mRNA; test: Antisense inhibition of human SMAD7 mRNA expression in Hep3B cells by 5-10-5 MOE gapmers, single concentration, electroporation, RT-PCR (Example 1, Study 1 and 2); type: cell-based; conditions: electroporation, 15,000 nM antisense oligonucleotide (Study 2), 5-10-5 MOE gapmers targeting SEQ ID NO: 1 and 2
Strand notation (5' to 3'): a small letter for the sugar, then the base; units joined by * are phosphorothioate-linked, units joined directly phosphodiester-linked; [ ] holds rarer units or linkages, { } end groups; capitals alone tell only the bases. e = 2'-O-(2-methoxyethyl) (MOE); [5mC] = 5-methylcytosine; d = 2'-deoxy (DNA)
# % inhibition of SMAD7 mRNA expression listing for each entry below
The figure you give is taken to be in %; do not add the unit.

// below: answered substances
>>> experimental_value("771873 (antisense eA*eG*e[5mC]*eT*eG*d[5mC]*dT*dG*dT*d[5mC]*dA*d[5mC]*dA*dA*dG*eG*e[5mC]*e[5mC]*e[5mC]*eT) [compound 771873]")
31
>>> experimental_value("771922 (antisense eA*eA*eA*eT*eT*d[5mC]*d[5mC]*dT*dT*dT*dA*dA*dG*dG*dT*eG*eT*eT*eG*e[5mC]) [compound 771922]")
29
>>> experimental_value("771528 (antisense eA*eA*eA*eG*eA*dG*dT*dT*dT*dG*d[5mC]*dA*dT*dG*dA*eA*eA*eA*eG*e[5mC]) [compound 771528]")
4
>>> experimental_value("771713 (antisense eT*eG*e[5mC]*e[5mC]*eT*dA*d[5mC]*dA*d[5mC]*dA*d[5mC]*dA*dA*dA*dA*eA*eG*e[5mC]*e[5mC]*eA) [compound 771713]")
15
>>> experimental_value("771914 (antisense eA*eT*eT*eT*eA*dG*dG*dA*dA*d[5mC]*dA*dA*dG*dG*dG*e[5mC]*eA*eA*eG*e[5mC]) [compound 771914]")
34

# % inhibition of SMAD7 mRNA expression (substance: 771826 (antisense e[5mC]*eA*e[5mC]*e[5mC]*eA*dT*d[5mC]*d[5mC]*dT*dG*dG*dT*dT*d[5mC]*dG*e[5mC]*eA*eG*eT*e[5mC]) [compound 771826] ) is 31

# % inhibition of SMAD7 mRNA expression (substance: 771721 (antisense e[5mC]*e[5mC]*e[5mC]*eA*eG*d[5mC]*dA*d[5mC]*dT*dG*dT*dG*dA*dT*dG*eT*e[5mC]*e[5mC]*eA*eG) [compound 771721] ) is 43

# % inhibition of SMAD7 mRNA expression (substance: 771850 (antisense eT*e[5mC]*e[5mC]*e[5mC]*eA*d[5mC]*dT*dT*d[5mC]*dT*d[5mC]*d[5mC]*dT*d[5mC]*dT*eG*eG*e[5mC]*eT*eG) [compound 771850] ) is 58

# % inhibition of SMAD7 mRNA expression (substance: 771584 (antisense eA*eG*e[5mC]*e[5mC]*eG*dT*dG*d[5mC]*dT*d[5mC]*d[5mC]*dT*dG*dG*d[5mC]*eA*eG*e[5mC]*eT*eG) [compound 771584] ) is 7
